system: Plasmodium berghei; assay: Screen against P. berghei liver stage (PbLuc), transformed with Luciferase, at 2uM; type: functional, HepG2; conditions: tested at 2 uM
Screen size: about 68,000 compounds; about 2,700 (4%) showed an effect of 50% or more. The entries come from a sample that favours strong results as a whole.
ASSAY_METRIC: INHIBITION (%)
Form entry: value (%) — number only.

[
  {
    "COMPOUND": "CC1(c2ncc(CN3CCN(c4ncccn4)CC3)cn2)CCCCO1 (stereo unspecified)",
    "RECORDED_MEASUREMENT": -30.88
  },
  {
    "COMPOUND": "COc1ccc2c(c1)CCCC2CC(=O)NCC(C)(C)C(=O)O (stereo unspecified)",
    "RECORDED_MEASUREMENT": 53.98
  },
  {
    "COMPOUND": "CCN1CCC2(CCC1=O)CN(c1ccnc(SC)n1)CCN2C (stereo unspecified)",
    "RECORDED_MEASUREMENT": -1.27
  },
  {
    "COMPOUND": "COCCN1CCC2(CCC1=O)CN(c1ccnc(SC)n1)CCN2C (stereo unspecified)",
    "RECORDED_MEASUREMENT": 1.85
  },
  {
    "COMPOUND": "O=C(CCc1ccc(O)cc1)N1CCC(Cc2ccc(CO)cc2)C1 (stereo unspecified)",
    "RECORDED_MEASUREMENT": 11.28
  }
]

Now consider the entry below.
Log: Plasmodium berghei, compound O=C(CCN1CCOCC1)N1CCC(Cc2ccc(CO)cc2)C1 (stereo unspecified) , INHIBITION = -11.66

----------
test system: Plasmodium berghei; test: Screen against P. berghei liver stage (PbLuc), transformed with Luciferase, at 2uM; type: functional, HepG2; settings: tested at 2 uM
Hit rate of the full screen: of about 68,000 compounds, about 2,700 (4%) showed an effect of 50% or more. Shown is part of a subset that was picked to be rich in strong results.
Reported INHIBITION is given for each of the following compounds.
In your response, put the unit directly after the numeric value.

[
  {
    "COMPOUND": "Cc1ccc(C(=O)N2CCc3ncnc(C)c3CC2)o1",
    "MEASUREMENT_TARGET": "Plasmodium berghei",
    "INHIBITION": "32.97%"
  },
  {
    "COMPOUND": "Cc1cccc2[nH]cc(CC(=O)N3CCC(Nc4cccnn4)CC3)c12",
    "MEASUREMENT_TARGET": "Plasmodium berghei",
    "INHIBITION": "64.16%"
  },
  {
    "COMPOUND": "CC(C)(C)C(=O)N1CCN(Cn2nccc2-c2cccnc2)CC1",
    "MEASUREMENT_TARGET": "Plasmodium berghei",
    "INHIBITION": "53%"
  }
]

Entry under test: O=C(Cc1cccc2ccccc12)N1CCC(Nc2cccnn2)CC1 . Its INHIBITION was -58.05%

----------
test system: Plasmodium berghei; assay: Screen against P. berghei liver stage (PbLuc), transformed with Luciferase, at 2uM; type: functional, HepG2; settings: tested at 2 uM
The campaign covered roughly 68,000 compounds. About 2,700 (4%) showed an effect of 50% or more. This excerpt belongs to a sample that is enriched for strong results.
ASSAY_METRIC: INHIBITION (%)
Form entry: value (%) — number only.

[
  {
    "MOLECULE": "Cc1cnn(CCNCc2nc(CNC(=O)c3ccccc3)no2)c1",
    "RECORDED_MEASUREMENT": 47.23
  },
  {
    "MOLECULE": "NC(=O)NCCC(=O)N1CCC(c2cc(-c3ccccc3Cl)n[nH]2)CC1",
    "RECORDED_MEASUREMENT": 31.25
  },
  {
    "MOLECULE": "CN1CCC(c2cccc(-c3ccc(C(=O)O)cc3)n2)CC1",
    "RECORDED_MEASUREMENT": -39.93
  },
  {
    "MOLECULE": "O=C1CC2(CCN(S(=O)(=O)C3CC3)C2)CN1c1cncnc1 (centres undefined)",
    "RECORDED_MEASUREMENT": 34.34
  },
  {
    "MOLECULE": "CCc1n[nH]c(C2CN(C(=O)c3cc4c(s3)CCCC4)CCO2)n1 (centres undefined)",
    "RECORDED_MEASUREMENT": 20.28
  },
  {
    "MOLECULE": "COc1cccnc1NC(=O)c1ccc(COCC(F)(F)F)cc1",
    "RECORDED_MEASUREMENT": -14.46
  }
]

Entry under test: Fc1ccc(-c2cnc(C3CCNCC3)cn2)cc1 . Its INHIBITION was 14.8

Entry under test: CC(=O)NC(C(=O)N(C)Cc1nnc2n1CCC2)C(C)C (centres undefined) . Its INHIBITION was -63.33

Entry under test: CN1CCC(N(C)CCC(=O)N2CCC(CCc3ccccc3)CC2)C1 (centres undefined) . Its INHIBITION was 66.79
